B1: FBXO39 (parent)
chain: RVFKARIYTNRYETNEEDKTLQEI

Variants of: B1
assay-details: protein stability index of a GFP-peptide fusion (GPS, HEK-293T) (PSI 1-6); higher = more stable;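 further: lentivirally expressed fusions sorted by FACS into six bins by GFP to DsRed ratio, PSI derived from sequencing read proportions per bin multiplied by bin number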
test-parameters: c terminus: a fixed tail appended
Quick reference: protein stability index of the listed items.
Give the figure by itself; no unit, no explanation.

variant-id: T14E
protein stability index: 2.62

variant-id: N10Q
protein stability index: 3.36

variant-id: E17P
protein stability index: 2.41

variant-id: Y12D
protein stability index: 3.89

For the next question, use this variant.
Input: Identify protein stability index associated with the variant `N10W`
Output: 2.2
